Sourced from paper PMC10070186

target-desc: T1, CgnB (Chondromyces crocatus CM c5)
T1 chain: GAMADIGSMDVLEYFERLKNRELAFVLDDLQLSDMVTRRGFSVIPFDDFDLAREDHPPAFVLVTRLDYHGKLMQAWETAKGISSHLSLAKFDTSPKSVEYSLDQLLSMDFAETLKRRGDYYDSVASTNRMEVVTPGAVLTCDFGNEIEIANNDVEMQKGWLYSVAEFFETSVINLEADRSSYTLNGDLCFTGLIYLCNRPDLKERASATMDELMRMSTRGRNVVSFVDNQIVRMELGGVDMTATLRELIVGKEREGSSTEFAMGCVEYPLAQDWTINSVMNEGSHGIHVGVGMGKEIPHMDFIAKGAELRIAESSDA
protocol-summary: MST
measured-attribute: Kd (µM)
Give the quantity in µM, number only.

q: Assign Kd to the following record: MKKTIKQISAGDRSKKGN [CgnA leader peptide (CgnA^LP)]
a: 78.2
